# study.target: NQO2 (Homo sapiens)
# Sequence (P16083 1-231): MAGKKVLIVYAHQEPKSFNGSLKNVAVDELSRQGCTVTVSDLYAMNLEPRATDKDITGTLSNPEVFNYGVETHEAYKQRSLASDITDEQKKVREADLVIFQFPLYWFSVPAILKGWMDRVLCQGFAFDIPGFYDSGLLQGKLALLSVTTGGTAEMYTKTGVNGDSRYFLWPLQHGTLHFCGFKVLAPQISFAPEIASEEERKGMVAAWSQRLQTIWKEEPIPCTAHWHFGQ
# assay.method.text: Co-substrate activity with NQO2 for reduction of CB 1954 (HPLC)
# Type: biochemical
# Parameters: restriction site were added to the 5′ and 3′-ends of the full-length NQO2 cDNA; made in house; host or cells: E. coli (expression vector pKK233-2, plasmid pKK-hNQO2)
# condition.info: CB 1954 reduction by NQO2; co-substrate initial 500 μM, CB 1954 initial 100 μM
property: RELATIVE RATE OF REDUCTION

1. NC(=O)C1=CN([C@@H]2O[C@H](COP(=O)(O)O)[C@@H](O)[C@H]2O)C=CC1 [NMNH] : 5.6
2. NC(=O)C1=CN([C@@H]2O[C@H](CO)[C@@H](O)[C@H]2O)C=CC1 [NRH, dihydronicotinamide riboside] : 70.0
3. NC(=O)C1=CN([C@@H]2O[C@H](COP(=O)(O)OP(=O)(O)OC[C@H]3O[C@@H](n4cnc5c(N)ncnc54)[C@H](O)[C@@H]3O)[C@@H](O)[C@H]2O)C=CC1 [NADH] : 1.0
4. NC(=O)C1=CN([C@@H]2O[C@H](COP(=O)(O)OP(=O)(O)OC[C@H]3O[C@@H](n4cnc5c(N)ncnc54)[C@H](OP(=O)(O)O)[C@@H]3O)[C@@H](O)[C@H]2O)C=CC1 [NADPH] : 1.24
